System: MDA-MB-231 breast
Assay: NCI-60 one-dose screen, 48 h (100 = growth as untreated, 0 = no growth, -100 = all killed)
Conditions: 10 µM unless noted
Procedure: Cells are grown in 96 well plates and exposed to the test compound for 48 hours. Compounds are tested at a single concentration, which is 10^-5 M for most compounds. The reported endpoint is percent growth (GI% or GIPRCNT), where numbers from 0 - 100% represent growth inhibition, and numbers from -100% - 0 represent cell death. For example, a value of 40 represents 60% growth inhibition. A value of 0 means no net growth occurred over the course of the experiment. […]
This is part of a sample that, as a whole, favours compounds with a hit. Of some 83,000 tested, about 20% had one in any assay. Activity calls are given as the source filed them. How the source made its calls: active means growth percent below 10; inactive means the rest.
Assign growth to each entry below.

The recorded growth for entry Nc1c(C(=O)Nc2ccccc2)sc2nc3c(cc12)CN(CCc1ccccc1)CC3 equals 90.4% (inactive)

According to the records, this molecule Cc1ccc2c(NCCCN(C)C)c3c(C)nn(C)c3nc2c1 displays growth of 47.6% (inactive)

Query CC/C(Cc1ccccc1)=C(/c1ccc(O)cc1)c1ccc(OCCN2CCCC2)cc1 yields growth of -60.8% (active)

Entry CC(=O)Nc1ccc2c(c1)c(NC(C)=O)nn2C(=O)Nc1ccc(Cc2ccccc2)cc1 , growth reported as 69.9% (inactive)

Documented growth of COc1cc(-c2c3sc(=O)[nH]c3nc3c2c(=O)[nH]n3C(C)C)cc2c1OCO2 : 101% (inactive)

Sure, the documented growth for CCCCCCCCCCCCCC1=NCCN1CCO is 51.3% (inactive)

Documented growth of CCOC(=O)c1c2c(n3ccc(NC(=O)CCN4CCCCC4)cc13)C(=O)c1ncccc1C2=O : -72.9% (active)

Reported growth of C=C1CCC2C3(C)COC(c4ccc(SC)cc4)OC3CCC2(C)C1C/C=C1/C(=O)OCC1O (stereo unspecified) : 87.9% (inactive)

Looking up COc1ccc(S(=O)(=O)NCCNc2nccc(-c3c(-c4cccc([N+](=O)[O-])c4)nc4sccn34)n2)cc1 , I see its growth listed as 82.9% (inactive)

Reported growth for Nc1c(C(=O)Nc2cccc3c2OCCO3)sc2nc3c(cc12)CN(Cc1ccccc1)CC3 was 66.4% (inactive)

molecule CC1=NNC(=O)C1C (stereo unspecified) , growth observed: 109% (inactive)

---

test system: PC-3 prostate; experiment: NCI-60 one-dose screen, 48 h (100 = growth as untreated, 0 = no growth, -100 = all killed); conditions: 10 µM unless noted
This is part of a sample that, as a whole, favours compounds with a hit. Of some 83,000 tested, about 20% had one in any assay.
propertyName: growth (%)
Unit % implied. Number only.

Kindly note: PC-3 prostate, Cc1ccc(N)cc1F , growth value reported: 108

Recorded growth for COc1cc(NCCCCCN=C(N)NC(N)=NC(C)C)c2ncccc2c1 on PC-3 prostate was 32.8

Recorded growth for CCN1CCN(Cc2ccc(NC(=O)Nc3nc4ccc(Oc5ccnc(C(=O)NC)c5)cc4s3)cc2C(F)(F)F)CC1 on PC-3 prostate was -63.3

Param item: Cn1c2ccccc2c2c3c(c4c5ccccc5[nH]c4c21)C(=O)N(N)C3=O ; param system: PC-3 prostate; output growth: 59.6

Lab entry: PC-3 prostate assay, molecule C[C@@H]1CC[C@@H]2[C@@H]1[C@H](OC(=O)/C=C/c1ccccc1)[C@]1(c3ccccc3)C[C@@H](OC(=O)CO)[C@@]2(C)O1 , growth = 80.5

growth for PC-3 prostate with input CCN(CC)CCCNc1cc(OC)cc2nc3cc(Cl)ccc3nc12 equals 2.49

# lookup: CC(=O)OC1Oc2cc(C)c(C)cc2-c2oc(=O)c(-c3cc4ccc(N(C)C)cc4oc3=O)cc21 (stereo not given) on PC-3 prostate, growth = 61.9

Tested on PC-3 prostate: O=C(Cn1cc(CN2C(=O)c3ccccc3S2(=O)=O)nn1)Nc1ccc([N+](=O)[O-])cc1Cl . Observed growth: 95.4

GET /values?item= COc1ccc(-c2nn(-c3ccccc3)cc2/C=C/C(=O)OCc2cn(-c3ccc(F)c(Cl)c3)nn2)cc1 &system= PC-3 prostate returns growth: 60.5

Noted growth for O=C1/C(=C/c2ccccc2)CN(CCC(=O)N2C/C(=C\c3ccccc3)C(=O)/C(=C/c3ccccc3)C2)C/C1=C\c1ccccc1 , tested on PC-3 prostate: 51.3

Let me check: CN(C)CCOc1ccc(-c2nc3ccc(-c4nc5ccc(N6CCN(C)CC6)cc5[nH]4)cc3[nH]2)cc1 , system PC-3 prostate, measured growth is 76.2

Measured growth (PC-3 prostate), entry CC[C@@H](C)OC(=O)c1nn(C(C)=O)c2ccccc12 : 103

Tested on PC-3 prostate: CCn1cc2c(cc1=O)-c1nc3ccccc3c3ccnc(c13)C2=O . Observed growth: 63.5

Per the reported PC-3 prostate data, O=C(NCc1cccc(C(F)(F)F)c1)[C@H](CCC(=O)N1CCN(C2CCCCC2)CC1)N1C(=O)[C@@H](N2C(=O)OC[C@@H]2c2ccccc2)[C@H]1/C(Cl)=C/c1ccccc1 has growth of 21.7

Field growth (system: PC-3 prostate) for entry Cc1nc2sc(C(=O)Nc3cccc4c3OCCO4)c(N)c2cc1C(C)O (stereo not given) = 32.6

---

Test system: HCT-15 colon
Assay: NCI-60 one-dose screen, 48 h (100 = growth as untreated, 0 = no growth, -100 = all killed)
Conditions: 10 µM unless noted
Experimental: Growth inhibition of the HCT-15 human tumor cell line is measured as a screen for anti-cancer activity. Cells are grown in 96 well plates and exposed to the test compound for 48 hours. Compounds are tested at a single concentration, which is 10^-5 M for most compounds. The reported endpoint is percent growth (GI% or GIPRCNT), where numbers from 0 - 100% represent growth inhibition, and numbers from -100% - 0 represent cell death. For example, a value of 40 represents 60% growth inhibition. […]
Compounds without any hit were thinned out: in the full panel of roughly 83,000, 20% have a hit.
Assign growth to each entry below.
Write the number in % without appending the unit.

Entry CCOC(=O)/C=C/C(=O)[C@H](CC(C)C)NC(=O)[C@H](Cc1ccccc1)NC(=O)OCc1ccccc1 ; growth = 15.5

Sure, the documented growth for COc1cc(/C=N/N(C)C)ccc1O is 105

growth for Cc1ccc(Nc2nc(N)nc(Nc3ccc4ccccc4c3)n2)cc1 is 29.3

Given item CCCCN(CCCC)CCC(C)(O)c1cc2ccccc2c2ccccc12 (stereo not given) , the value recorded as its growth is 82.2

// Nc1cccc(-c2nc3sccn3c2-c2ccnc(NCCCNS(=O)(=O)c3ccc(C(F)(F)F)cc3)n2)c1 : growth value = 1.79

---

Please go through the items and note down their growth.
system: T-47D breast; experiment: NCI-60 one-dose screen, 48 h (100 = growth as untreated, 0 = no growth, -100 = all killed); details: 10 µM unless noted
This is part of a sample that, as a whole, favours compounds with a hit. Of some 83,000 tested, about 20% had one in any assay.
Provide the reading as a plain figure in %.

The compound identified as Cn1c2ccccc2c2c3[nH]c(=O)[nH]c(=O)c3c3c4ccccc4n(C)c3c21 registered its growth at 42.5

Short answer for O=[N+]([O-])c1cccc(-c2nc3sccn3c2-c2ccnc(NCCCNS(=O)(=O)c3ccc(Br)cc3)n2)c1 : growth was 1.8

CCN(CC)c1ccc(CNc2cc(C)nc3ccc(OC)cc23)cc1 yielded growth of 80

# growth of Nc1ccc2c(c1)C(=O)NC2=O = 93.5

Lookup result for O=C(CCCN1CCOCC1)Nc1ccc(Cn2nnc3c2C(=O)c2nnn(Cc4ccc(NC(=O)CCCN5CCOCC5)cc4)c2C3=O)cc1 ; measured growth: -16.5

Form field growth, entry CCOC(=O)/C=C/c1ccc(C(=O)OCC)[nH]1 : 34.9

For reference, reported growth for Cc1cc(OCc2ccc(C(F)(F)F)cc2)c2c(c1)C(=O)C=C(NCCN1CCCC1)C2=O stands at 42.8

growth measured on Cc1[nH]n(-c2ccccc2)c2nc3nncc3c(-c3ccc(Cl)cc3)c12 = 93.6

The recorded growth for entry CCCCCCCCSC1=CC(=O)C(OC)=C(OC)C1=O equals -76.6

According to the records, this compound COc1cccc(/C=C\C(=O)c2ccccc2)c1 displays growth of 56.5

Short answer for CCCCCCCCCCCCCCCCCCSC1=CC(=O)C(OC)=C(OC)C1=O : growth was 87.9

get_value(item= O=C(CCCCN1CCOCC1)Nc1ccc(Cn2nnc3c2C(=O)c2nnn(Cc4ccc(NC(=O)CCCCN5CCOCC5)cc4)c2C3=O)cc1 , readout=growth) returns -50.5

Form field growth, entry COc1ccc(-c2cc(-c3cccnc3)nc3sc4c(=O)n(-c5ccc(C)cc5)cnc4c23)cc1OC : 98.7

O=[N+]([O-])c1cccc(-c2nc3sccn3c2-c2ccnc(NCCCNS(=O)(=O)c3cccc(F)c3)n2)c1 yielded growth of -13.4

Summary for this compound, CCN(C(=O)CN1CCN(c2cc3c(cc2F)c(=O)c(C(=O)O)cn3CC)CC1)c1nc(-c2ccccc2)cs1 : growth is 11.9

Quick note, growth for Cc1ccc(N)cc1F landed at 184

C=C1CCC2C3(C)COC(c4ccccc4Br)OC3CCC2(C)C1C/C=C1/C(=O)OCC1OC(C)=O (stereo not drawn) yielded growth of -68.9

compound C/C=C/C(N)=O , growth observed: 115
